- Target: GDP-bound KRAS protein (aa 1-169), containing both G12D and C118A amino acid substitutions (Homo sapiens, UniProt P01116, C118A/G12D)
- Sequence (P01116 1-169 isoform P01116-2 G12D/C118A): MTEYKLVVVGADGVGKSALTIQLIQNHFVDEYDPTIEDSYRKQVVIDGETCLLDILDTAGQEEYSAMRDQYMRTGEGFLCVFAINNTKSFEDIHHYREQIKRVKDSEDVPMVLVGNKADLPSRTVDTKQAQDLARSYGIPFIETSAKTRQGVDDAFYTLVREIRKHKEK
- Assay Remarks: KRAS G12D Coupled Nucleotide Exchange Assay;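 also: IC50 obtained by fitting the AlphaScreen signal with a four-parameter logistic curve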
- Format: biochemical
- Run Parameters: 2 h compound pre-incubation; SOS-mediated nucleotide exchange, cRAF AlphaScreen readout
Measured Parameter: Avg 2 h Coupled Exchange IC50 (µM)

>>> df
                                   molecule  quantitative_readout
0  C=Cc1cc2c(N3CCNCC3)nc(OC[C@@H]3CCCN3C)nc2c(F)c1-c1cccc2sc(N)nc12 [Example 149]                 0.025
1  Nc1nc2c(-c3c(Cl)cc4c(N5CCNCC5)nc(N5CCC6(CCN6)C5)nc4c3F)cccc2s1 (stereo not shown) [Example 109]                  2.17

a: CN1C[C@@H](F)C[C@H]1COc1nc(N2CCNCC2)c2cc(Cl)c(-c3cccc4sc(N)nc34)c(F)c2n1 [Example 62]
b: CN1C[C@H](F)C[C@H]1COc1nc(N2CCCNC(=O)C2)c2cc(Cl)c(-c3ccc(F)c4sc(N)nc34)c(F)c2n1 [Example 19]
Q) Choose between a and b : whose measured Avg 2 h Coupled Exchange IC50 value is numerically larger? Field: selected label. Fill in the label of the entry you choose.
A) a
(a: 0.394 µM, b: 0.062 µM)
